Reference source: patent US9353141B2

targetOrTestSystem: galectin-1 (Homo sapiens)
Sequence (P09382 whole entry, species assumed): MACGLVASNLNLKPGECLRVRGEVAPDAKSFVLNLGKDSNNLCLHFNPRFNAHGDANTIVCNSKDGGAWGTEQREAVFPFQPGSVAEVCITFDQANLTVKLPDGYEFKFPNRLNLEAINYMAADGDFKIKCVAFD
endpointName: Kd (µM)
Field: numeric (µM). Do not append units.

"O=c1oc2cccc(F)c2cc1CO[C@H]1[C@@H](O)[C@@H](CO)O[C@@H](S[C@@H]2O[C@H](CO)[C@H](O)[C@H](OCc3cc4c(F)cccc4oc3=O)[C@H]2O)[C@@H]1O" has a reported Kd of 8.7

Lab book: Kd of O=C(NC1C(O)[C@H](S[C@@H]2OC(CO)[C@H](O)C(NC(=O)c3ccc4ccccc4c3)C2O)OC(CO)[C@@H]1O)c1ccc2ccccc2c1 (stereo partly drawn) [Compound 36, reference compound] noted as 9.6

Lab note: measured Kd of O=c1oc2ccc(Cl)cc2cc1COC1C(O)[C@H](S[C@@H]2OC(CO)[C@H](O)C(OCc3cc4cc(Cl)ccc4oc3=O)C2O)OC(CO)[C@@H]1O (stereo partly drawn) was 7.9

---

Parameter Kd: see the listing below.
targetOrTestSystem: galectin-4 (N-terminal domain) (Homo sapiens)
experiment: Fluorescence polarization-based galectin inhibition assay
Assay type: binding
measurementContext: fluorescence polarization, 20° C.; read-out: Calculated Kd Galectin 4 (N-terminal domain)

COc1ccc2cc(CO[C@H]3[C@@H](O)[C@@H](CO)O[C@@H](S[C@@H]4O[C@H](CO)[C@H](O)[C@H](OCc5cc6ccc(OC)cc6oc5=O)[C@H]4O)[C@@H]3O)c(=O)oc2c1	130 µM
CC(C)(C)c1ccc2oc(=O)c(COC3C(O)[C@H](S[C@@H]4OC(CO)[C@H](O)C(OCc5cc6cc(C(C)(C)C)ccc6oc5=O)C4O)OC(CO)[C@@H]3O)cc2c1 (stereo partly drawn)	> 1000 µM

Shift focus to the following entry.
Reported Kd for O=c1oc2ccc(OC(F)(F)F)cc2cc1COC1C(O)[C@H](S[C@@H]2OC(CO)[C@H](O)C(OCc3cc4cc(OC(F)(F)F)ccc4oc3=O)C2O)OC(CO)[C@@H]1O (stereo partly drawn) was > 500 µM

---

Below, each entry is listed with its recorded Kd.
targetOrTestSystem: galectin-4 (C-terminal domain) (Homo sapiens)
Sequence (P56470 194-323 limits assumed): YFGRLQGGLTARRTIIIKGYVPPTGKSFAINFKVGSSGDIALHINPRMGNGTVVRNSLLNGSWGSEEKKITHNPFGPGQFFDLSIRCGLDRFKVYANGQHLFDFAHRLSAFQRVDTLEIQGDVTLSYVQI

See these solved cases before continuing.
COc1ccc2cc(CO[C@H]3[C@@H](O)[C@@H](CO)O[C@@H](S[C@@H]4O[C@H](CO)[C@H](O)[C@H](OCc5cc6ccc(OC)cc6oc5=O)[C@H]4O)[C@@H]3O)c(=O)oc2c1	> 500 µM
Cc1ccc2cc(COC3C(O)[C@H](S[C@@H]4OC(CO)[C@H](O)C(OCc5cc6ccc(C)cc6oc5=O)C4O)OC(CO)[C@@H]3O)c(=O)oc2c1 (stereo partly shown)	> 500 µM
O=c1oc2ccc(F)c(F)c2cc1CO[C@H]1[C@@H](O)[C@@H](CO)O[C@@H](S[C@@H]2O[C@H](CO)[C@H](O)[C@H](OCc3cc4c(F)c(F)ccc4oc3=O)[C@H]2O)[C@@H]1O	> 500 µM

# Kd (compound: O=c1oc2ccc(OC(F)(F)F)cc2cc1COC1C(O)[C@H](S[C@@H]2OC(CO)[C@H](O)C(OCc3cc4cc(OC(F)(F)F)ccc4oc3=O)C2O)OC(CO)[C@@H]1O (stereo partly shown) ) is > 500 µM
